ASSAY: Stability in rat plasma
Type: in vitro ADME
TEST_CONTEXT: rat plasma, 100 μM, 37° C.; read-out: t1/2 (converted)
MEASUREMENT_TYPE: half-life at 100 µM

>>> val("CCOC(=O)[C@@]1(OC(=O)C(Cl)Cl)CC[C@H]2[C@@H]3CCC4=CC(=O)C=C[C@]4(C)[C@H]3[C@@H](O)C[C@@]21C")
"5.08 h"

====

ASSAY: Stability in liver homogenate
Type: in vitro ADME, rat
TEST_CONTEXT: rat, liver homogenate
Method: A Whatman C-18 column (4.6 mm×108 mm) was connected to a Spectra-Physics component system consisting of a SP 8810 precision isocratic pump, Rheodyne 7125 injector (20 μL injection volume), SP 8450 UV/VIS variable wavelength detector (230 nm), and SP 4290 integrator. The system was operated at ambient temperature. The mobile phase consisted of acetonitrile, acetic acid and water (60:0.1:40). […]
MEASUREMENT_TYPE: half-life at 100 µM (min)

>>> val("C[C@]12C=CC(=O)C=C1CC[C@@H]1[C@@H]2[C@@H](O)C[C@@]2(C)[C@H]1CC[C@]2(OC(=O)C(Cl)Cl)C(=O)OCCl")
7.6
>>> val("CC(C)OC(=O)[C@@]1(OC(=O)C(Cl)Cl)CC[C@H]2[C@@H]3CCC4=CC(=O)C=C[C@]4(C)[C@H]3[C@@H](O)C[C@@]21C")
29.3
>>> val("COC(=O)[C@@]1(OC(=O)C(Cl)Cl)CC[C@H]2[C@@H]3CCC4=CC(=O)C=C[C@]4(C)[C@H]3[C@@H](O)C[C@@]21C")
3.7

====

TESTED_ON: rat lung glucocorticoid receptor (Rattus norvegicus)
Construct: Immediately after resection of the lungs, the tissue was frozen in ice; The cytosol was prepared; from tissue; host or cells: lung cytosol of adrenalectomized male Sprague-Dawley rats
ASSAY: Receptor binding studies ([3H]triamcinolone acetonide displacement)
TEST_CONTEXT: rat lung cytosol, 10 nM [3H]triamcinolone acetonide, with Δ1-cortienic acid, 2 h, 24° C.; read-out: IC50
Protocol: Male Sprague-Dawley rats, each weighing 150 to 200 g, were used 6 days after adrenalectomy. Rats were sacrificed by decapitation. Immediately after resection of the lungs, the tissue was frozen in ice. […] The cytosol was thawed in a water bath and diluted with 1 part of incubation buffer containing a 15 mM concentration of diisopropyl fluorophosphate. […] The radioactivity (cpm) in the supernatant (400 μL) was determined by liquid scintillation counting. […]
pIC50: −log10 of the molar value.
We begin with a simple list: items and their reported pIC50.
MEASUREMENT_TYPE: pIC50

>>> val("CCOC(=O)[C@@]1(O)CC[C@H]2[C@@H]3CCC4=CC(=O)C=C[C@]4(C)[C@H]3[C@@H](O)C[C@@]21C")
"< 5.70"
>>> val("CCOC(=O)[C@@]1(OC(=O)C(Cl)Cl)CC[C@H]2[C@@H]3CCC4=CC(=O)C=C[C@]4(C)[C@H]3[C@@H](O)C[C@@]21C")
7.40
>>> val("C[C@]12C=CC(=O)C=C1CC[C@@H]1[C@@H]2[C@@H](O)C[C@@]2(C)[C@H]1CC[C@]2(OC(=O)C(Cl)Cl)C(=O)O")
"< 5.70"
>>> val("CC(C)OC(=O)[C@@]1(O)CC[C@H]2[C@@H]3CCC4=CC(=O)C=C[C@]4(C)[C@H]3[C@@H](O)C[C@@]21C")
"< 5.70"

====

System: forearms of a human volunteer
ASSAY: Further human vasoconstriction testing, Method 1; note: key: 0: normal skin; 1: slight pallor of indistinct outline; 2: pallor with at least two corners outlined; 3: even pallor with a clear outline of the application sites; 4: very intense pallor
Format: in vivo
TEST_CONTEXT: 3 Hours, 0.1 mM
Items are presented alongside their recorded Vasoconstriction activity.
MEASUREMENT_TYPE: Vasoconstriction activity

>>> val("CCCCC(=O)O[C@]1(C(=O)CO)[C@@H](C)C[C@H]2[C@@H]3CCC4=CC(=O)C=C[C@]4(C)[C@@]3(F)[C@@H](O)C[C@@]21C [Betamethasone 17-valerate, reference compound]")
1
>>> val("CCOC(=O)[C@@]1(OC(=O)C(C)Cl)CC[C@H]2[C@@H]3CCC4=CC(=O)C=C[C@]4(C)[C@H]3[C@@H](O)C[C@@]21C (some centres unmarked)")
0
>>> val("CCOC(=O)[C@@]1(OC(=O)CCl)CC[C@H]2[C@@H]3CCC4=CC(=O)C=C[C@]4(C)[C@H]3[C@@H](O)C[C@@]21C")
0
>>> val("CCOC(=O)[C@@]1(OC(=O)CC)CC[C@H]2[C@@H]3CCC4=CC(=O)C=C[C@]4(C)[C@H]3[C@@H](O)C[C@@]21C [Compound P, reference compound]")
0
>>> val("CCOC(=O)[C@@]1(OC(=O)C(Cl)Cl)CC[C@H]2[C@@H]3CCC4=CC(=O)C=C[C@]4(C)[C@H]3[C@@H](O)C[C@@]21C")
1
>>> val("CCOC(=O)O[C@]1(C(=O)OCCl)CC[C@H]2[C@@H]3CCC4=CC(=O)C=C[C@]4(C)[C@H]3[C@@H](O)C[C@@]21C [Loteprednol etabonate, reference compound]")
1
>>> val("COC(=O)[C@@]1(OC(=O)C(Cl)Cl)[C@H](C)C[C@H]2[C@@H]3CCC4=CC(=O)C=C[C@]4(C)[C@@]3(F)[C@@H](O)C[C@@]21C")
2
>>> val("CCOC(=O)[C@@]1(OC(=O)C(Cl)Cl)[C@H](C)C[C@H]2[C@@H]3CCC4=CC(=O)C=C[C@]4(C)[C@@]3(F)[C@@H](O)C[C@@]21C")
2

====

Here the recorded Therapeutic Index (a/b) is given for each entry.
System: granuloma / thymolysis
ASSAY: Comparison of local effect and systemic side-effects (therapeutic index)
Format: in vivo, rat
TEST_CONTEXT: granuloma relative potency / thymolysis relative potency
MEASUREMENT_TYPE: Therapeutic Index (a/b)

>>> val("CCC(=O)O[C@]1(C(=O)CCl)[C@@H](C)C[C@H]2[C@@H]3CCC4=CC(=O)C=C[C@]4(C)[C@@]3(F)[C@@H](O)C[C@@]21C [Clobetasol 17-propionate]")
1.54
>>> val("CCCCC(=O)O[C@]1(C(=O)CO)[C@@H](C)C[C@H]2[C@@H]3CCC4=CC(=O)C=C[C@]4(C)[C@@]3(F)[C@@H](O)C[C@@]21C [Betamethasone 17-valerate, reference compound]")
1.0
>>> val("CCCC(=O)O[C@]1(C(=O)CO)CC[C@H]2[C@@H]3CCC4=CC(=O)CC[C@]4(C)[C@H]3[C@@H](O)C[C@@]21C [Hydrocortisone 17-butyrate]")
1.23
>>> val("COC(=O)[C@@]1(OC(=O)C(Cl)Cl)[C@H](C)C[C@H]2[C@@H]3CCC4=CC(=O)C=C[C@]4(C)[C@@]3(F)[C@@H](O)C[C@@]21C")
7.10

====

TESTED_ON: rat lung glucocorticoid receptor (Rattus norvegicus, UniProt P06536)
Construct: Immediately after resection of the lungs, the tissue was frozen in ice; The cytosol was prepared; from tissue; host or cells: lung cytosol of adrenalectomized male Sprague-Dawley rats
Sequence (P06536 whole entry): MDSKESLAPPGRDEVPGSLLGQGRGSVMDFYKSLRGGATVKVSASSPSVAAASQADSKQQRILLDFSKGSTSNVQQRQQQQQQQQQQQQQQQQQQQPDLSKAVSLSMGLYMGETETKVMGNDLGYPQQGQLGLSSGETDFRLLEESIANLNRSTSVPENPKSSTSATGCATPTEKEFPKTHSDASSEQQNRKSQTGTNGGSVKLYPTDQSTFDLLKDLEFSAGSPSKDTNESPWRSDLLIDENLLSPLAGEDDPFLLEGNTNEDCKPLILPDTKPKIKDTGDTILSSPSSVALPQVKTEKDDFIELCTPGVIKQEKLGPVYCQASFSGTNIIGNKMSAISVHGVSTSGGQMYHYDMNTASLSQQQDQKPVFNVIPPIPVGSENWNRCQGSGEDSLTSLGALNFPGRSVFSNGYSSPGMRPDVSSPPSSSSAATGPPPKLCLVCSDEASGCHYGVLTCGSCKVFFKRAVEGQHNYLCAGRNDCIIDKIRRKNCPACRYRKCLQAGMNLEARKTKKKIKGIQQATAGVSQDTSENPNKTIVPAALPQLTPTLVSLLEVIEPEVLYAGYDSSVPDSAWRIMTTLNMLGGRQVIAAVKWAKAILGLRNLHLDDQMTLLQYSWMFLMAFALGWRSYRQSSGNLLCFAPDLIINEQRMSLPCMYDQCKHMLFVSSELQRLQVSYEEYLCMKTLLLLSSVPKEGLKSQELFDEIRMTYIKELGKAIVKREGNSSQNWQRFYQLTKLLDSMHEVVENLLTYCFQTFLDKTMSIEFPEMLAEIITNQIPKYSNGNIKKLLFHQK
ASSAY: Receptor binding studies ([3H]triamcinolone acetonide displacement)
TEST_CONTEXT: rat lung cytosol, 10 nM [3H]triamcinolone acetonide, with Δ1-cortienic acid, 2 h, 24° C.; read-out: IC50
MEASUREMENT_TYPE: IC50 (nM)

>>> val("CC(C)OC(=O)[C@@]1(OC(=O)C(Cl)Cl)CC[C@H]2[C@@H]3CCC4=CC(=O)C=C[C@]4(C)[C@H]3[C@@H](O)C[C@@]21C [Compound C]")
69.8
>>> val("C[C@]12C=CC(=O)C=C1CC[C@@H]1[C@@H]2[C@@H](O)C[C@@]2(C)[C@H]1CC[C@]2(OC(=O)C(Cl)Cl)C(=O)OCCl [Compound D]")
11.9
>>> val("COC(=O)[C@@]1(OC(=O)C(Cl)Cl)CC[C@H]2[C@@H]3CCC4=CC(=O)C=C[C@]4(C)[C@H]3[C@@H](O)C[C@@]21C [Compound A]")
49.5

====

Here, each record is paired with measured half-life at 100 µM data.
ASSAY: Stability in rat blood
Type: in vitro ADME
TEST_CONTEXT: rat, blood
MEASUREMENT_TYPE: half-life at 100 µM (min)

>>> val("CC(C)OC(=O)[C@@]1(OC(=O)C(Cl)Cl)CC[C@H]2[C@@H]3CCC4=CC(=O)C=C[C@]4(C)[C@H]3[C@@H](O)C[C@@]21C [Compound C]")
107
>>> val("C[C@]12C=CC(=O)C=C1CC[C@@H]1[C@@H]2[C@@H](O)C[C@@]2(C)[C@H]1CC[C@]2(OC(=O)C(Cl)Cl)C(=O)OCCl [Compound D]")
11.6
>>> val("COC(=O)[C@@]1(OC(=O)C(Cl)Cl)CC[C@H]2[C@@H]3CCC4=CC(=O)C=C[C@]4(C)[C@H]3[C@@H](O)C[C@@]21C [Compound A]")
26.9
